biological target: HLA-B*18:01; assay: IEDB peptide-MHC binding, purified MHC/competitive/fluorescence; filed as Kd, often an IC50 or EC50 that approximates it; bounds were set here for any values at or beyond the usual limits of such assays; conditions: source organism: Four Corners hantavirus
pKd: −log10 of the molar value.
Reported Endpoint: pKd

Problem: Tell me reported pKd for KSAFYQSYL , tested with HLA-B*18:01.
Result: ≤ 4.70

###

biological target: HLA-B*08:01; test: IEDB peptide-MHC binding, purified MHC/competitive/radioactivity; filed as Kd, often an IC50 or EC50 that approximates it; bounds were set here for any values at or beyond the usual limits of such assays; conditions: source organism: Dengue virus 4 Philippines/H241/1956
For each entry below, report its Kd value.
Note: unit nM is implicit; provide only the numeric part.

Problem: Tell me reported Kd for EKWKRQLNSL , tested with HLA-B*08:01.
Result: 251

Problem: Tell me reported Kd for KREDLWCGSL , tested with HLA-B*08:01.
Result: 4730

Problem: Tell me reported Kd for VMKRYSAPF , tested with HLA-B*08:01.
Result: 8.98

Problem: Tell me reported Kd for IMAVLFVVTL , tested with HLA-B*08:01.
Result: 5420

###

target: HLA-B*15:01; assay: IEDB peptide-MHC binding, purified MHC/direct/fluorescence; filed as Kd, often an IC50 or EC50 that approximates it; bounds were set here for any values at or beyond the usual limits of such assays; settings: source organism: Burkholderia mallei
Reported Endpoint: pKd
Formally, pKd is defined as -log10 of the concentration c, with c in mol/L.

Problem: Tell me reported pKd for STYQPLPLY , tested with HLA-B*15:01.
Result: 7.61

###

molecular target: HLA-B*44:02; assay: IEDB peptide-MHC binding, purified MHC/competitive/radioactivity; filed as Kd, often an IC50 or EC50 that approximates it; bounds were set here for any values at or beyond the usual limits of such assays; details: source organism: Lymphocytic choriomeningitis virus (strain WE)
Reported Endpoint: Kd
The reply should consist of the numeric value with the unit placed after it.

Problem: Which Kd value is on record for KEPVESCPLM ?
Result: 14.3 µM

###

target: HLA-A*29:02; test: IEDB peptide-MHC binding, purified MHC/competitive/fluorescence; bounds were set here for any values at or beyond the usual limits of such assays; conditions: source organism: Rattus norvegicus
Reported Endpoint: IC50
The reply should consist of the numeric value with the unit placed after it.

Problem: Which IC50 value is on record for SLLERGQQLGV ?
Result: 17.8 µM

###

molecular target: HLA-A*80:01; assay: IEDB peptide-MHC binding, purified MHC/direct/fluorescence; filed as Kd, often an IC50 or EC50 that approximates it; bounds were set here for any values at or beyond the usual limits of such assays; details: source organism: Yellow fever virus
For each entry below, report its Kd value.
Note: unit nM is implicit; provide only the numeric part.

Problem: Tell me reported Kd for GTGDSRLTY , tested with HLA-A*80:01.
Result: 200

Problem: Tell me reported Kd for GVEGIGLQY , tested with HLA-A*80:01.
Result: 338

###

target: HLA-A*02:19; assay: IEDB peptide-MHC binding, purified MHC/competitive/fluorescence; filed as Kd, often an IC50 or EC50 that approximates it; bounds were set here for any values at or beyond the usual limits of such assays; conditions: source organism: Human immunodeficiency virus 1
Reported Endpoint: pKd
Formally, pKd is defined as -log10 of the concentration c, with c in mol/L.

Problem: Tell me reported pKd for FLGKIWPS , tested with HLA-A*02:19.
Result: 9.40

###

biological target: HLA-A*02:17; experiment: IEDB peptide-MHC binding, purified MHC/competitive/radioactivity; filed as Kd, often an IC50 or EC50 that approximates it; bounds were set here for any values at or beyond the usual limits of such assays; details: source organism: Dengue virus 3 China/80-2/1980
Reported Endpoint: Kd (µM)
Note: unit µM is implicit; provide only the numeric part.

Problem: Which Kd value is on record for VLLLVTHYA ?
Result: 6.82

Problem: Which Kd value is on record for QLANAIFKL ?
Result: 0.0244

###

target: HLA-B*08:01; experiment: IEDB peptide-MHC binding, purified MHC/competitive/fluorescence; bounds were set here for any values at or beyond the usual limits of such assays; settings: source organism: Zaire ebolavirus
Reported Endpoint: pIC50
Formally, pIC50 is defined as -log10 of the concentration c, with c in mol/L.

Problem: Tell me reported pIC50 for ILFQRTFSI , tested with HLA-B*08:01.
Result: 5.90

Problem: Tell me reported pIC50 for TNQLRSVGL , tested with HLA-B*08:01.
Result: 4.48

Problem: Tell me reported pIC50 for QGIVRQRVI , tested with HLA-B*08:01.
Result: 5.13

###

molecular target: HLA-B*35:01; test: IEDB peptide-MHC binding, purified MHC/competitive/radioactivity; filed as Kd, often an IC50 or EC50 that approximates it; bounds were set here for any values at or beyond the usual limits of such assays; conditions: source organism: Lymphocytic choriomeningitis virus (strain WE)
Reported Endpoint: pKd
Formally, pKd is defined as -log10 of the concentration c, with c in mol/L.

Problem: Tell me reported pKd for EPVESCPLM , tested with HLA-B*35:01.
Result: 7.57

###

biological target: HLA-A*02:12; assay: IEDB peptide-MHC binding, purified MHC/direct/fluorescence; filed as Kd, often an IC50 or EC50 that approximates it; bounds were set here for any values at or beyond the usual limits of such assays; conditions: source organism: Orthohantavirus tulaense
pKd: −log10 of the molar value.
Reported Endpoint: pKd

Problem: Tell me reported pKd for ILMARYMSK , tested with HLA-A*02:12.
Result: ≤ 4.70

###

biological target: HLA-A*69:01; experiment: IEDB peptide-MHC binding, purified MHC/direct/fluorescence; filed as Kd, often an IC50 or EC50 that approximates it; bounds were set here for any values at or beyond the usual limits of such assays; conditions: source organism: Rickettsia prowazekii
Reported Endpoint: pKd
Formally, pKd is defined as -log10 of the concentration c, with c in mol/L.

Problem: Which pKd value is on record for KIFEYGFTF ?
Result: 5.37

###

molecular target: HLA-A*11:01; experiment: IEDB peptide-MHC binding, purified MHC/competitive/radioactivity; filed as Kd, often an IC50 or EC50 that approximates it; bounds were set here for any values at or beyond the usual limits of such assays; settings: source organism: Dengue virus 3 Martinique/1243/1999
Reported Endpoint: Kd (nM)
Note: unit nM is implicit; provide only the numeric part.

Problem: Tell me reported Kd for SILASSLLR , tested with HLA-A*11:01.
Result: 125

Problem: Tell me reported Kd for ISNMLSIINK , tested with HLA-A*11:01.
Result: 113

###

target: HLA-A*02:16; test: IEDB peptide-MHC binding, purified MHC/competitive/fluorescence; filed as Kd, often an IC50 or EC50 that approximates it; bounds were set here for any values at or beyond the usual limits of such assays; details: source organism: Human immunodeficiency virus 1
pKd: −log10 of the molar value.
Reported Endpoint: pKd

Problem: Tell me reported pKd for FLGKIWPS , tested with HLA-A*02:16.
Result: ≥ 10.00

###

biological target: HLA-B*40:01; experiment: IEDB peptide-MHC binding, purified MHC/competitive/radioactivity; filed as Kd, often an IC50 or EC50 that approximates it; bounds were set here for any values at or beyond the usual limits of such assays; conditions: source organism: Lymphocytic choriomeningitis virus (strain Armstrong)
Reported Endpoint: Kd
The reply should consist of the numeric value with the unit placed after it.

Problem: Which Kd value is on record for ADNMITEML ?
Result: 19.5 µM

###

target: HLA-B*18:01; assay: IEDB peptide-MHC binding, purified MHC/direct/fluorescence; filed as Kd, often an IC50 or EC50 that approximates it; bounds were set here for any values at or beyond the usual limits of such assays; conditions: source organism: Influenza A virus (A/G.H/HK/793.1/02 (H5N1))
Reported Endpoint: Kd

Problem: Tell me reported Kd for RRKTNLYGF , tested with HLA-B*18:01.
Result: ≥ 20 µM

###

target: HLA-A*01:01; assay: IEDB peptide-MHC binding, purified MHC/competitive/fluorescence; bounds were set here for any values at or beyond the usual limits of such assays; conditions: source organism: Rattus norvegicus
pIC50: −log10 of the molar value.
Reported Endpoint: pIC50

Problem: Which pIC50 value is on record for SLLERGQQLGV ?
Result: ≤ 4.70

###

target: HLA-B*54:01; test: IEDB peptide-MHC binding, purified MHC/competitive/radioactivity; filed as Kd, often an IC50 or EC50 that approximates it; bounds were set here for any values at or beyond the usual limits of such assays; details: source organism: Lymphocytic choriomeningitis virus (strain WE)
Reported Endpoint: Kd

Problem: Which Kd value is on record for EPVESCPLM ?
Result: ≥ 78.1 µM
